biological target: kinases (kinome) (Homo sapiens); construct: determined in kinobeads assays with mass spectrometry detection of kinases as described previously; endogenous in cells; experiment: kinobeads assay with mass spectrometry detection of kinases (kinase selectivity profile); settings: CLK2 (CMGC), IPI00028071
Sequence (P49760 whole entry): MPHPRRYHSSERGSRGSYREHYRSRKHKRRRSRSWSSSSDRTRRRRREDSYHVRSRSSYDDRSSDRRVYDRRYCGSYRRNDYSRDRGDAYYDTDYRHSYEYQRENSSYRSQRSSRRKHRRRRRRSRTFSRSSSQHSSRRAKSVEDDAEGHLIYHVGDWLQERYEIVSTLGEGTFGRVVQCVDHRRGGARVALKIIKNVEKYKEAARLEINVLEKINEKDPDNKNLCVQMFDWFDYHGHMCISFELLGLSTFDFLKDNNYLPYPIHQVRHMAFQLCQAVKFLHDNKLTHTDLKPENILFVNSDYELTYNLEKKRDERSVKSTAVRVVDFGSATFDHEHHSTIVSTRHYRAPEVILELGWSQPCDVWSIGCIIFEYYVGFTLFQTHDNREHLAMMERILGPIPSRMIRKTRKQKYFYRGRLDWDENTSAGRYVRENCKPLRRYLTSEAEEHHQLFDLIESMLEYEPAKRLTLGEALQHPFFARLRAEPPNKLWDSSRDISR
IC50 values, listed per item

// known answers, use as guide
Smiles representation | Result
CCNC(=O)Nc1ccc(-c2cc(-c3ccccc3C#N)nc(N3CCOC[C@@H]3C)n2)cc1 | > 10 µM
C[C@H]1COCCN1c1cc(-c2ccccn2)nc(-c2ccc(NC(=O)NCCO)cc2)n1 | > 10 µM

Requested read-out: IC50. Entry: C[C@H]1COCCN1c1nc(-c2ccc(NC(=O)NC3CC3)cc2)cc(-c2cccnc2S(C)(=O)=O)n1
> 10 µM
